Assignment: determine reported yeast fitness for the given variants.
B1: tRNA (parent)
chain: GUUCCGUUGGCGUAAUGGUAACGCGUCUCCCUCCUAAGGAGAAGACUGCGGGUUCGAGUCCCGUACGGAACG

Variants of: B1
Assay: yeast fitness relative to wild type (ratio to wild type); higher = fitter; tRNA-Arg(CCU), competitive growth, 37 C, YPD
This sample holds only a part of the variants without activity.
Give bare numbers.

The measured yeast fitness associated with C5G U13C C22G C33A reads 0.635

The measured yeast fitness associated with U19G C27G reads 0.776

The measured yeast fitness associated with A21C C46U A69C reads 0.668

State recorded yeast fitness for all listed variants.
1. C5U C31G U59C
2. G6A C11U C22G
3. C4U C24U C30A
4. A15C C27G

*A*
0.913
0.555
0.597
0.571
